- study-target: Focal adhesion kinase 1 (Homo sapiens) (UniProt Q05397)
- Sequence (Q05397 whole entry, looked up): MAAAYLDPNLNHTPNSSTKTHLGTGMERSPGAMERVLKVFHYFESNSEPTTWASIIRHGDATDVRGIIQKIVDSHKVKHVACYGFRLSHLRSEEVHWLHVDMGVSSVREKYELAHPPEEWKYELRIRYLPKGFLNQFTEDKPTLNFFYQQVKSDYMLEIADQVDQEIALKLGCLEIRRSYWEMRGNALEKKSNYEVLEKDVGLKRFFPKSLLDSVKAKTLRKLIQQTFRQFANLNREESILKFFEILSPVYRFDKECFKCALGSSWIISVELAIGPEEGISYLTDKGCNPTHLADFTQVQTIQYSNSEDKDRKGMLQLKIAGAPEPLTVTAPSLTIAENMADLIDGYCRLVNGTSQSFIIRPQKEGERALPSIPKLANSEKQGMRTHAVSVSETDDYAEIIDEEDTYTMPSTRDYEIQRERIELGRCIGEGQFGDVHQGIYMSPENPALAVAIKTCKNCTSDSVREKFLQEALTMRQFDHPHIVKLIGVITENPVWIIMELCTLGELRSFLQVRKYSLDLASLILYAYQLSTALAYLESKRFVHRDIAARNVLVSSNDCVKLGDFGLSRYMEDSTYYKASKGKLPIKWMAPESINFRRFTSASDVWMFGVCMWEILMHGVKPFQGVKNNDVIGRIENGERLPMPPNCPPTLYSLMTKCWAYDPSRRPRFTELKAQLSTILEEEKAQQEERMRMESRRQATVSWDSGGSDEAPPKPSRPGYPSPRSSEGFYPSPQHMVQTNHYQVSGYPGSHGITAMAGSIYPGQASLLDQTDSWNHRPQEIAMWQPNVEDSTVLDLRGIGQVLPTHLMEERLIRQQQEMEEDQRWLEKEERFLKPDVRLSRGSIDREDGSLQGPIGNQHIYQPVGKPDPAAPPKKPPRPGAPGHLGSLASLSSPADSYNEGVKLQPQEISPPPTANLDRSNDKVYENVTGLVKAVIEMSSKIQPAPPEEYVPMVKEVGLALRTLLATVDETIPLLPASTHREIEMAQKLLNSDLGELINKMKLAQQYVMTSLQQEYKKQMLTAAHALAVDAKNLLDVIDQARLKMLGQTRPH
- procedure-text: small-molecule microarray binders of FAK, primary screen, biochemical, 635/667 nm fluorescence, BSA, DTT (AID 1130);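 also: composite of spot emission at 667 nm and signal to noise over triplicate slides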
- condition-notes: PTK2 binding, 635 nm fluorescence, higher = more signal
Measured composite z-score values are reported for all entries that follow.
readout: composite z-score

- CCOC(=O)[C@H](Cc1ccccc1)NC(=O)CCC1CC(OC(=O)NCc2ccc3c(c2)OCO3)CC2(CCCC(COC(=O)NCCC(C)C)O2)O1 (stereo partly drawn): 0.234
- C[C@H]1COC(=O)[C@@H]2CCCN2C(=O)[C@@H](C)COC(=O)[C@H](Cc2ccccc2)NC1=O: 0.0349
- CO[C@H]1COC(=O)[C@H](C)NC(=O)CC=C[C@@H](C)[C@H](OC)COC(=O)[C@@H](OCc2ccccc2)C=C[C@@H]1C: -0.329
- CCC=CCCC(OC(=O)c1ccc(Br)cc1)C1=CCCCC1=O (stereo not drawn): 0.408
- COc1ccc(C#C[C@@H]2C=C[C@H](OC(C)=O)[C@@H](COC(C)=O)O2)cc1: 0.0919
- COc1cccc([C@H]2Oc3ccc(OC)cc3C(=NOC(C)CN3CCCCc4nc(C)c(C)cc43)[C@@H]2O)c1 (stereo partly drawn): -0.251
- CCc1cc2c(nc1CC)CCN(CCC(C)=NO[C@@H](C)c1cn([C@H](CO)Cc3ccccc3)nn1)C2: -0.0908
- CO[C@@H]1COC(=O)[C@@H](C)COC(=O)[C@@H](C)NC(=O)CC=C[C@@H]1C: -0.149

Cited source: PubChem BioAssay
